- Target desc: MRP2 (Homo sapiens, UniProt Q92887)
- Construct: made in house; host or cells: Sf9 insect cells (baculovirus)
- Sequence (Q92887 whole entry): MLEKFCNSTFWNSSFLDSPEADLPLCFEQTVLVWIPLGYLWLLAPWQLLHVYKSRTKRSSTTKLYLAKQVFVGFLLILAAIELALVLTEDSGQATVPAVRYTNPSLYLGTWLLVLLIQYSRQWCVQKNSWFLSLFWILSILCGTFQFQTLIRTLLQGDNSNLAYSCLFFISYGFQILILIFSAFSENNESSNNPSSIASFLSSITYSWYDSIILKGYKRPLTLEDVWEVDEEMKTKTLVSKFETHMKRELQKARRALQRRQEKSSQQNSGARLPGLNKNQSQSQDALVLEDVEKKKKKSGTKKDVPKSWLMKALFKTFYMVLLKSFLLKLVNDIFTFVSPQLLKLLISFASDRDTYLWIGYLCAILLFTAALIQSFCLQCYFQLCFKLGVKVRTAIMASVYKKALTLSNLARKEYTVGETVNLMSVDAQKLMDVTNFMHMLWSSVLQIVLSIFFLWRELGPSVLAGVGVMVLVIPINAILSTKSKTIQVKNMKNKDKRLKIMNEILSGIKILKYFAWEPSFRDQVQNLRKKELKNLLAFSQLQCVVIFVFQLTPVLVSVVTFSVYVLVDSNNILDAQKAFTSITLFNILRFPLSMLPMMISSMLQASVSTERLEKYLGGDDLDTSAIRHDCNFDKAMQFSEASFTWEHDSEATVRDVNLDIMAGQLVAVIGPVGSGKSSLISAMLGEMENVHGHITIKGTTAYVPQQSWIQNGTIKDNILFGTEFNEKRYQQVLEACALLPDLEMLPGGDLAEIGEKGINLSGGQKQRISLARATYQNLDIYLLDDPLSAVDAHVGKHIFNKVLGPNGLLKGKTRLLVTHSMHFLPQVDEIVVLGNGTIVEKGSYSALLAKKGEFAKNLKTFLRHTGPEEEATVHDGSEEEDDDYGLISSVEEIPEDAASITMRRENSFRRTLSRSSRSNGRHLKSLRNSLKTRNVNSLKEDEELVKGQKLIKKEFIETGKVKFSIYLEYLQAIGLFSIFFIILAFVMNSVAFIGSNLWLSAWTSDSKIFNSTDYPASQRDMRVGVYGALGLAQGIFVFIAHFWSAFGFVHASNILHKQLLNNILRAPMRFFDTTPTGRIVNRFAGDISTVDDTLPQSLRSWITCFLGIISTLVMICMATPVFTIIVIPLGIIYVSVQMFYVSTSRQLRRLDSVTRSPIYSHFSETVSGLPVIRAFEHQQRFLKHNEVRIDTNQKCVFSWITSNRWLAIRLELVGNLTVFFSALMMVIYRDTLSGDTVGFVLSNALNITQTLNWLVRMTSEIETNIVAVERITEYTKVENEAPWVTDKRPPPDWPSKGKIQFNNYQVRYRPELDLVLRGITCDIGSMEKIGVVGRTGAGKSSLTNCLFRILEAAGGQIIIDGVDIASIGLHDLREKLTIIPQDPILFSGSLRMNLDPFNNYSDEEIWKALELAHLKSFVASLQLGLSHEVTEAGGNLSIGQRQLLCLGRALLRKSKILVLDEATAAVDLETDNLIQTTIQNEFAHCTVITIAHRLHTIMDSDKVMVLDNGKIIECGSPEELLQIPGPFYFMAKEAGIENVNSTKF
- Procedure summary: MRP2 vesicular transport of CDCF in Sf9 membrane vesicles
- Assay type: biochemical
- Condition set: vesicular uptake of 5 μM CDCF; read-out: IC50 for MRP2
Measured quantity: IC50 (µM)

O=c1c(O)c(-c2ccc(O)c(OS(=O)(=O)O)c2)oc2cc(O)cc(O)c12 [Q3′S, quercetin-3′-sulfate]
19.6

(1) O=C(O)C1OC(Oc2c(-c3ccc(O)c(O)c3)oc3cc(O)cc(O)c3c2=O)C(O)C(O)C1O (stereo not shown) [Q3G, quercetin-3-glucuronide]
(2) COc1cc(-c2oc3cc(O)cc(O)c3c(=O)c2OC2OC(C(=O)O)C(O)C(O)C2O)ccc1O (stereo not shown) [I3G, isorhamnetin-3-glucuronide]
Of the two listed items, which has the higher IC50? First: 1 Second: 2 Write the label of whichever entry you select.
1
(1: 24.2 µM, 2: 14.9 µM)
